biological target: T1, Anti-PSMA Fab (SEQ ID NOs: 19, 20); assay: phage binding ELISA; biotinylated anti-PSMA Fab on neutravidin plate, wells pre-incubated with PSMA antigen as competitor, anti-M13-HRP detection
T1 construct: Used biotinylated and captured on neutravidin coated plates; also called 006 PSMA Fab
Where no end group is shown, it is not given here.
# 1 (yes) = Anti-PSMA Fab signal in the presence of PSMA below 0.07 (exclusive); 0 (no) = Anti-PSMA Fab signal in the presence of PSMA at/above 0.07

Bench note: check whether FVCWTFGEHIKVCR (cysteine pairing not given here; also: displayed on phage as pIII fusion, pIII sequence, linker and fusion order not given here, not shown: pIII coat protein of the bacteriophage to which the peptide is fused) [Phage-1714] shows Anti-PSMA Fab signal in the presence of PSMA below 0.07 0 (no)

Bench note: check whether SIPCIPRDWLCPIK (cysteine pairing not given here; also: displayed as fusion to phage pIII, linker and order of fusion not given here, not shown: pIII coat protein of the bacteriophage to which the peptide is fused) [Phage-1710] shows Anti-PSMA Fab signal in the presence of PSMA below 0.07 0 (no)

Bench note: check whether LMKWCTPRWMCAAE (cysteine pairing not given here; also: fused to phage pIII (clonal phage display), not shown: pIII coat protein of the bacteriophage to which the peptide is fused) [Phage-1707] shows Anti-PSMA Fab signal in the presence of PSMA below 0.07 0 (no)

Bench note: check whether PELRCVPFWMCSFN (cysteine pairing not given here; also: fused to phage pIII (clonal phage display), not shown: pIII coat protein of the bacteriophage to which the peptide is fused) [Phage-1709] shows Anti-PSMA Fab signal in the presence of PSMA below 0.07 1 (yes)
